Test system: LPETG (Abz-LPETGK(Dnp)-CONH2)
Experiment: In vitro sortase kinetics HPLC assay, LPETG substrate
Type: biochemical
Settings: Example 5 variants; substrate wt (LPETG)
Description: See below for details on sortase expression and purification, and on the synthesis of Abz-LPETGK(Dnp)-CONH2 (SEQ ID NO: 19). […] Reactions were initiated with the addition of enzyme and incubated at 22.5° C. for 3 to 20 minutes before quenching with 0.5 volumes of 1 M HCl. […] Percent conversion was also calculated by using the ratio of the integrated areas of the GK(Dnp)-CONH2 and Abz-LPETGK(Dnp)-CONH2 peptide Abs355 peaks were compared directly (Example 5). […]
Binary call on Avg kcat (Hz) with cut-off 0.1 Hz: strictly below means fulfilled, and equality or higher means not fulfilled.

molecule | category-label
eSrtA(4S-9): P94R, N98D, S102C, A104V, A118T, F122A, K134R, F144L, D160N, D165A, I182V, E189F, K190E, K196T (protein) QAKPQIPKDKSKVAGYIEIPDADIKEPVYPGPATREQLDRGVCFVEENESLDDQNISITGHTAIDRPNYQFTNLRAAKKGSMVYLKVGNETRKYKMTSIRNVKPTAVEVLDEQKGKDKQLTLVTCDDYNFETGVWETRKIFVATEVK | fulfilled
eSrtA(2A-3.5) (protein) QAKPQIPKDKSKVAGYIEIPDADIKEPVYPGPATREQLNRGVSFAEENESLDDQNISIAGHTFIDRPNYQFTNLKAAKKGSMVYFKVGNETRKYKMTSIRNVRPTAVEILDEQKGKDKQLTLFTCDDYNEETGVWETRKIFVATEVK | not fulfilled
eSrtA(4S-4): 5mut + A104V A118T F122S I182V (protein) QAKPQIPKDKSKVAGYIEIPDADIKEPVYPGPATREQLNRGVSFVEENESLDDQNISITGHTSIDRPNYQFTNLKAAKKGSMVYFKVGNETRKYKMTSIRNVKPTAVEVLDEQKGKDKQLTLVTCDDYNEETGVWETRKIFVATEVK | not fulfilled
eSrtA(4S-5): 5mut + N98D A104V A118T F122A K134R I182V (protein) QAKPQIPKDKSKVAGYIEIPDADIKEPVYPGPATREQLDRGVSFVEENESLDDQNISITGHTAIDRPNYQFTNLRAAKKGSMVYFKVGNETRKYKMTSIRNVKPTAVEVLDEQKGKDKQLTLVTCDDYNEETGVWETRKIFVATEVK | fulfilled
eSrtA(2A-9): P94R, S102C, A104H, E105D, K138P, K152I, N160K, K162H, T164N, D165A, K173E, I182V, K190E, T196S (protein) QAKPQIPKDKSKVAGYIEIPDADIKEPVYPGPATREQLNRGVCFHDENESLDDQNISIAGHTFIDRPNYQFTNLKAAKPGSMVYFKVGNETRIYKMTSIRKVHPNAVEVLDEQEGKDKQLTLVTCDDYNEETGVWESRKIFVATEVK | fulfilled
eSrtA(4S-6): round 6 consensus variant targeting LPESG (protein) QAKPQIPKDKSKVAGYIEIPDADIKEPVYPGPATREQLDRGVSFVEENESLDDQNISISGHTAIDRPNYQFTNLGAAKKGSMVYFKVGNETRKYKMTSIRNVKPTAVEVLDEQKGKDKQLTLVTCDDYNVETGVWETRKIFVATEVK | not fulfilled
